system: DYRK1A; details: concentration: 1 μM, replicates: in singlicate; n = 1;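 further: KINOMEscan kinase panel screen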
measured quantity: %Inh (%)
Report as a plain number; the unit % is understood.

Answer with %Inh of CNc1ncnc2[nH]ncc12 [SKF-18355] measured for DYRK1A. 0

Answer with %Inh of Nc1nccc(-c2c(-c3ccc(F)cc3)ncn2C2CCN(CC(F)(F)F)CC2)n1 [SB-236560] measured for DYRK1A. 5

Provide the reported %Inh (system: DYRK1A) for COc1cc2c(cc1OCCN1CCN(C)CC1)ncc1c3ccc(C#N)cc3[nH]c21 94.6

Param request: %Inh | system DYRK1A | item CC(C)Oc1ccc2c(-c3ccnc(Nc4ccc(N5CCN(C)CC5)cc4)n3)cnn2n1 [GW696155] 61

====

tested on: MTOR; conditions: concentration: 1 μM, replicates: in singlicate; n = 1
measured quantity: %Inh
Answer by giving the amount and then stating its unit.

Identify %Inh associated with the compound COc1ccc(Nc2nccc(N3CCC(NC(=O)Nc4cccc(C(C)=O)c4)C3)n2)cc1 (centres unmarked) 16%

Using the record for CC(C)Oc1ccc2c(-c3ccnc(Nc4ccc(N5CCN(C)CC5)cc4)n3)cnn2n1 , state its measured %Inh. 27%

Please report the measured %Inh for Cc1cccc(-c2nc(-c3ccc(S(C)(=O)=O)cc3)sc2-c2ccncc2)c1 0%

Answer with the recorded %Inh for the compound listed here: COCCNC(=O)c1ccc(-c2cc(C(=O)NC3CC3)cc(F)c2C)cc1 0%

Tell us which %Inh value is on record for O=C1Cc2cc(Nc3nc(NCc4cccc(S(=O)(=O)C(F)(F)F)c4)ncc3C(F)(F)F)ccc2N1 29%

Recall and state the measured %Inh for COc1cc2c(cc1OC[C@@H](O)CO)ncc1c3ccc(C#N)cc3[nH]c21 . 52%

Respond only with %Inh recorded for Cc1ccc(C(=O)NCC(N)=O)cc1-n1c(C)cc(OCc2ccc(F)cc2F)c(Br)c1=O 0%

Supply reported %Inh belonging to this compound: Cn1ccc2ncnc(Oc3ccc(NC(=O)Nc4ccncc4)c(Cl)c3)c21 11%

Note down %Inh recorded for O=C(NCCNc1ccnc(Nc2ccc(F)cc2)n1)Nc1ccccc1F 10%

Consider the compound [2H]C([2H])(c1cccc(C(F)(F)F)c1C)n1ccn2c(=O)nc(N3CCOCC3)cc12 . State its measured %Inh. 18%

Please look at this compound and report its %Inh: CN(C(=O)c1ccc(-c2cc(-c3c[nH]nc3-c3ccccn3)ccn2)cc1)C1CCOCC1 10%

Specify %Inh for O=C(Nc1n[nH]c2cc(-c3cccc(F)c3)ccc12)C1CC1 and stop. 0%

Provide measured %Inh value, entry: Cc1c2ccc(N(C)c3ccnc(Nc4cccc(S(N)(=O)=O)c4)n3)cc2nn1Cc1ccccc1.Cl.Cl 0%

Please report the measured %Inh for N#Cc1c(N2CCOCC2)sc(-c2ccn[nH]2)c1-c1ccc(Cl)cc1 0%

Dear colleague, please send me the reported %Inh for COc1cc(Nc2nccc(N3CCC(NC(=O)c4cccc(NC(C)=O)c4)C3)n2)cc(OC)c1OC (centres unmarked) when you can. 7%

Given the compound O=C(c1ccc(-c2cc(-c3c[nH]nc3-c3ccccn3)ccn2)cc1)N1CCOCC1 , write its reported %Inh. 17%

Tell me measured %Inh for CC(=O)Nc1ccc(COc2ccc(Nc3ccnc4cc(-c5ccccn5)ccc34)cc2)cc1.Cl please. 13%
